Property: Kd; scope: individual binders
- target_entity: T1, rat MASP-2cf CCP1-CCP2-SP (rat, UniProt Q9JJS8 298-685)
- T1 construct: range 298-685; Mw 42309 Da; also called rat MASP-2 catalytic fragment
- assay_notes: SPR, target immobilised
Where no end group is shown, it is not given here.

| binder | units_of_measure | Kd |
| --- | --- | --- |
| EVO2a (designed binder, not fully specified; cysteine pairing not given here, Modified TFPI-D2 Kunitz domain; made as m1) KPDFCFLENDPGPCRAVKRRYFYNNQTKQCERFKYGGCLGNMNNFETLEECKNICEDG | nM | 4.73 |
| EVO211 (designed binder, not fully specified; ends and bridges not checked, Modified TFPI-D2 Kunitz domain; made as m1) KPDFCFLENDPGWCRALKRRYFYNNQTKQCERFGYGGCLGNMNNFVTLEECKNICEDG | nM | 2.87 |
| EVO221 (designed binder, not fully specified; cysteine pairing not given here, Modified TFPI-D2 Kunitz domain; made as m1) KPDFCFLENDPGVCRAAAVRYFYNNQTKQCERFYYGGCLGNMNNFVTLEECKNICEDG | nM | 0.17 |
| EVO25 (designed binder, not fully specified; cysteine pairing not given here, Modified TFPI-D2 Kunitz domain; made as m1) KPDFCFLENDPGPCRALKRRYFYNNQTKQCERFYYGGCFGNMNNFETLEECKNICEDG | nM | 0.787 |

The values you see were collected from patent US20260098080A1.
